Reported values: MIC for Pr. vulgaris, 08601, one per item.

These recorded examples may help you get a feel for the data.
molecule: CO/N=C(\C(=O)N[C@@H]1C(=O)N2C(C(=O)[O-])=C(C[n+]3ccc(-c4cnco4)cc3)CS[C@H]12)c1csc(N)n1
MIC: < 0.1 µg/mL
//
molecule: CO/N=C(\C(=O)N[C@@H]1C(=O)N2C(C(=O)O)=C(COC(C)=O)CS[C@H]12)c1csc(N)n1 [Cefotaxime, reference compound]
MIC: < 0.1 µg/mL

# context switch: different molecule, same MIC
What value of measured MIC is listed for CO/N=C(\C(=O)N[C@@H]1C(=O)N2C(C(=O)[O-])=C(C[n+]3ccc(-n4ccnc4)cc3)CS[C@H]12)c1csc(N)n1 ? < 0.1 µg/mL

The reported measurements were obtained from patent US4833242A.
